Assay: growth inhibition of DIPG glioma cells, dose response, cell-based, SU-DIPG-XVII, MIPE5.0, CellTiter-Glo, qHTS (AID 1347060);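 on AC50: cells exposed to compound for 48 hours before viability readout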
Details: SU-DIPG-XVII viability, CellTiter-Glo ATP luminescence
Records with an inconclusive call do not appear. The source made the active and inactive calls. Cut-off not given; nearly all actives show AC50 up to about 26 µM.
# valid calls are active, inactive; nothing else

Would you please look over these solved cases?
Request: Per the records of this test, what outcome belongs to `CCc1c(C(=O)C(N)=O)c2c(OCC(=O)O)cccc2n1Cc1ccccc1` ?
Result: inactive

Request: Item: `C=C1C[C@@H]2[C@H](CC[C@]3(C)C(=O)CC[C@@H]23)[C@@]2(C)C=CC(=O)C=C12`
Result: inactive

Request: Item: `Cc1ccccc1-n1c(Cn2ncc3c(N)ncnc32)nc2cccc(C)c2c1=O`
Result: inactive

Request: Item: COc1cccc2c1C(=O)c1c(O)c3c(c(O)c1C2=O)C[C@@](O)(C(=O)CO)CC3OC1CC(N2CCOC(OC)C2)C(O)C(C)O1 (some centres not stated)
Result: active

Request: Item: `CC(=O)OC[C@H]1O[C@@H]([S-])[C@H](OC(C)=O)[C@@H](OC(C)=O)[C@@H]1OC(C)=O.CC[PH+](CC)CC.[Au]`
Result: active

Request: Item: `CC1(C)CC[C@]2(NC(=O)C(C)(F)F)CC[C@]3(C)[C@H](C(=O)C=C4[C@@]5(C)C=C(C#N)C(=O)C(C)(C)[C@@H]5CC[C@]43C)[C@@H]2C1`
Result: active

***
Request: Per the records of this test, what outcome belongs to CN1[C@@H]2CC(O)C[C@H]1[C@@H]1O[C@@H]12 (some centres not stated) ?
Result: inactive

Request: Item: `C[C@]12CCC(=O)C(O)=C1CC[C@@H]1[C@@H]2CC[C@]2(C)C(=O)CC[C@@H]12`
Result: inactive

Request: Item: `CC(C)(O)/C=C\C(=O)[C@](C)(O)[C@H]1[C@H](O)C[C@]2(C)[C@@H]3CC=C4[C@@H](C=C(O)C(=O)C4(C)C)[C@]3(C)C(=O)C[C@@]12C`
Result: active

Request: Item: `CC[C@@]1(O)C(=O)OCc2c1cc1n(c2=O)Cc2cc3ccccc3nc2-1`
Result: active

Request: Item: `COc1cc(C)[nH]c(=O)c1CNC(=O)c1c(C)n([C@H](C)C2CCN(CC(F)(F)F)CC2)c2ccccc12`
Result: inactive
